experiment: Cell Proliferation Assay against the HBL1 Cell Line (AID 651646); conditions: HBL1 DLBCL cells; at 46.1 µM (top of the series);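 note: cells exposed to compound for 48 h before reading; 100% = DMSO and 0% = 9.2 µM bortezomib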
ENDPOINT_LABEL: viability, percent of control
Please answer using the number first and the unit second.

Illustrative cases are given below, each with its answer.
CC(=O)OCCN1C(=O)c2c(C)nc3ccc(S(=O)(=O)N4CCOCC4)cc3c2C1=O	105%
COc1cccc2nc(-c3cccs3)nc(NN3C(=O)C=C(C)C3=O)c12	3.09%

Would you mind telling me what viability, percent of control value was observed for Fc1cc(-c2cccc3ncc(-c4cnn(C5CCNCC5)c4)nc23)cc(F)c1CN1CCOCC1 ?
2.06%

src = PubChem BioAssay (NCATS)
